Origin of measurements: patent US5518735A

Quick note: these are pKi numbers for system: thrombin (Bos taurus)
Where a name gives a salt, the structure may show the parent alone.
Worth noting: pKi values are minus log10 of concentrations stated in mol/L.

Sample records with pKi:
N=C(N)c1cccc(CC(NC(=O)CNS(=O)(=O)c2ccc3ccccc3c2)C(=O)N2CCCCC2C(=O)O)c1 (racemic) [Compound 165] :: 4.21
N=C(NO)c1cccc(CC(NS(=O)(=O)c2ccc3ccccc3c2)C(=O)N2Cc3ccccc3CC2C(=O)O)c1 (racemic) [Compound 190, hydroiodide] :: 5.62

Now consider the entry below.
Quickly give me recorded pKi for N=C(N)c1cccc(CC(NS(=O)(=O)c2ccc3ccccc3c2)C(=O)N2CCCCC2C(=O)NCC(=O)O)c1 (racemic) [Compound 116, hydrochloride]
5.89
